# measurementProtocol: Oral bioavailability in mouse at 3 mg/kg by LC-MS/MS analysis
# Type: ADME, organism-based
# recordedConditions: in vivo

querySmiles: O=C1N/C(=N/c2ccccc2Cl)S/C1=C1\C(=O)Nc2ccc(F)cc21
bioavailability [%]: 90.6

* * *

# subjectOfTest: Mitogen-activated protein kinase 10 (Homo sapiens)
# Sequence (P53779 whole entry): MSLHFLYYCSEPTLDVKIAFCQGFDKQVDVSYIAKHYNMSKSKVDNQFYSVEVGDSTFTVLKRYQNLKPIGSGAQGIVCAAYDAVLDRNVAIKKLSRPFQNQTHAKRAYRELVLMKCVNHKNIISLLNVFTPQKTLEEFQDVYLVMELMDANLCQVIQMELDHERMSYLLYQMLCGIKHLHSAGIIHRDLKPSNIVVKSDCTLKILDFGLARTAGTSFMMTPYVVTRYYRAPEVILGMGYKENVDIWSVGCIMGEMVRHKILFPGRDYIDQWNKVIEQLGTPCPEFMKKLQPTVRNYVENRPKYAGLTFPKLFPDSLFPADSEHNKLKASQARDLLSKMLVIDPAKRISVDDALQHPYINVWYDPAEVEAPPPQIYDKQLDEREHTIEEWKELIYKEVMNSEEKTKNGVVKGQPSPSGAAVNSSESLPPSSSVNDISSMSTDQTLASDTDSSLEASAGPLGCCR
# measurementProtocol: Inhibition of JNK3 (unknown origin) by kinase profiling assay
pIC50: −log10 of the molar value.
quantityKind: pIC50

querySmiles: O=C1N/C(=N/c2ccccc2Cl)S/C1=C1\C(=O)Nc2ccc(F)cc21
quantityKind: pIC50
testResult: 7.00

* * *

# measurementProtocol: Inhibition of P38 mitogen activated protein kinase (unknown origin)
# Design: species or system Homo sapiens
pIC50: −log10 of the molar value.

molecule: Cc1ccc(C(=O)NC2CC2)cc1-c1ccc(C(=O)c2ccc(OCC(O)CO)cc2)cc1 (stereo unspecified)
pIC50: 7.57
